Target: Recombinant ROCK1 (amino acids 1-535) (Homo sapiens (Human))
Sequence (Q13464 1-535): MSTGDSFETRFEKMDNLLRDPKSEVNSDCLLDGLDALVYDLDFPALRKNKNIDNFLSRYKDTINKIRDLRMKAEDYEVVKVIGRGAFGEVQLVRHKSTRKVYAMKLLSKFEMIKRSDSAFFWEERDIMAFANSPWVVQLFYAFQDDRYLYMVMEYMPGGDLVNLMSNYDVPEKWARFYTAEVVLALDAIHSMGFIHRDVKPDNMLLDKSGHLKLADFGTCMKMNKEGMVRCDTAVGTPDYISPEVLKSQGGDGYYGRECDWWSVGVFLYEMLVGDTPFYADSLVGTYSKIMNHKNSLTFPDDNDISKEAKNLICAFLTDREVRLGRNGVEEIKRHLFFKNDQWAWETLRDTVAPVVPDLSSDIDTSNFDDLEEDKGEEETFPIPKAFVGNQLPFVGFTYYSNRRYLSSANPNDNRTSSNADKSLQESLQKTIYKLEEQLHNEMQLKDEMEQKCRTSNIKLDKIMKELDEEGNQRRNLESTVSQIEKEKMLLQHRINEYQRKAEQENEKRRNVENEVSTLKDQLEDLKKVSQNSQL
Assay: Z′-Lyte kinase assay, ROCK1
Type: biochemical
Conditions: 3 μM compound; read-out: ROCK1 % inh. @ [conc]
inhibition at 3 µM values, listed per item

MOLECULE: CCC1CN(c2nccc(Nc3ccc(-c4ccncc4)cc3)n2)CCCN1 (stereo not drawn)
inhibition at 3 µM, %: 100
--
MOLECULE: c1cc(Nc2ccc3[nH]ncc3c2)nc(N2CCNCC2)n1
inhibition at 3 µM, %: 102
--
MOLECULE: Cc1cc(Nc2ccc(-c3ccncc3)cc2)nc(N2CCCNC(C)C2)n1 (stereo not drawn)
inhibition at 3 µM, %: 100
--
MOLECULE: CCC1CN(c2nccc(Nc3ccc4[nH]ncc4c3)n2)CCN1 (stereo not drawn)
inhibition at 3 µM, %: 99
--
MOLECULE: c1cc(-c2ccc(Nc3ccnc(N4CCCNCC4)n3)cc2)ccn1
inhibition at 3 µM, %: 89.1
--
MOLECULE: CC(C)C1CN(c2nccc(Nc3ccc4[nH]ncc4c3)n2)CCN1 (stereo not drawn)
inhibition at 3 µM, %: 100
--
MOLECULE: c1cc(Nc2ccc3[nH]ncc3c2)nc(N2C3CCC2CNC3)n1
inhibition at 3 µM, %: 98.5
--
MOLECULE: CC1CCN(c2nccc(Nc3ccc4[nH]ncc4c3)n2)CCN1 (stereo not drawn)
inhibition at 3 µM, %: 17.4
--
MOLECULE: c1ccc2c(Nc3ccc(-c4ccncc4)cc3)nc(N3CCCNCC3)nc2c1
inhibition at 3 µM, %: 88.5

---

Tested on: human ACTA2 gene promoter luciferase reporter in NIH3T3 cells
Assay: NIH3T3 Acta2-promoter driven-luciferase assay
Assay type: cell-based
Conditions: NIH3T3, 24 h, with TGFβ1, 24 hr; read-out: NIH3T3 Acta2-luc, IC50
Method: NIH3T3 Cells Acta2-Promoter Driven-Luciferase Assay. A NIH3T3 cell line stably expressing a luciferase reporter driven by the human ACTA2 gene promoter (−1000-1 bp) was established (NIH3T3-Acta2-luciferase). […] Cells were then lysed and luciferase activity was measured using the LightSwitch luciferase kit from Active Motif. In vitro activities for the compounds were measured with Z′-lyte kinase kit (ThermoFisher Scientific). […]
pIC50: −log10 of the molar value.

COMPOUND: CC(=O)N1Cc2nc(N3C4CCC3CNC4)nc(Nc3ccc4[nH]ncc4c3)c2C1
pIC50: < 5.30
--
COMPOUND: c1cc(-c2cn[nH]c2)ccc1Nc1nc(N2C3CNCC2C3)nc2c1CNC2
pIC50: < 5.00
--
COMPOUND: CN1CCc2nc(N3C4CCC3CNC4)nc(Nc3ccc4[nH]ncc4c3)c2C1
pIC50: < 5.00
--
COMPOUND: CCOC(=O)[C@H]1N[C@@H]2C[C@@H]1CN(c1ncc(Cl)c(Nc3ccc4[nH]ncc4c3)n1)C2 (stereo in doubt)
pIC50: < 5.00

---

Molecular target: Recombinant ROCK2 (amino acids 1-552) (Homo sapiens (Human), UniProt O75116)
Sequence (O75116 1-552): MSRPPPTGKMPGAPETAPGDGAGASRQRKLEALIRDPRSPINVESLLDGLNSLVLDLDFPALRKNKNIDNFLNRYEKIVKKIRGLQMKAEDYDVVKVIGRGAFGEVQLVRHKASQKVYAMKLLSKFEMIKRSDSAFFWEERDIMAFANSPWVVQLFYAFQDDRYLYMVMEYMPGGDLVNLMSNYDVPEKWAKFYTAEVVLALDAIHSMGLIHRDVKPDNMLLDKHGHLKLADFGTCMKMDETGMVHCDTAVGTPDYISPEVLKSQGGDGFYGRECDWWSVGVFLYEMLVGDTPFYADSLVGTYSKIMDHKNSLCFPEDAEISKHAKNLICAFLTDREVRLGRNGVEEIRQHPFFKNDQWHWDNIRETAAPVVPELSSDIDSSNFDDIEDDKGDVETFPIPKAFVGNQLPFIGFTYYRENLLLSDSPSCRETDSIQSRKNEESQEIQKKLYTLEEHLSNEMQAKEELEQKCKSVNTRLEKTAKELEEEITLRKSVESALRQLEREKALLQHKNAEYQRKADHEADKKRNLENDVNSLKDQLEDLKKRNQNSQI
Test: Z′-Lyte kinase assay, ROCK2
Assay type: biochemical

STRUCTURE AS SMILES: c1cc2[nH]ncc2cc1Nc1nc(N2C3CNCC2C3)nc2c1CNC2
OPERATOR: =
IC50 (nM): 3.8
--
STRUCTURE AS SMILES: c1cc(Nc2ccnc(N3CCNCC3)n2)cc(-c2cn[nH]c2)c1
OPERATOR: >
IC50 (nM): 10000
--
STRUCTURE AS SMILES: c1cc(Nc2ccc3[nH]ncc3c2)nc(N2CCNCC2)n1
OPERATOR: =
IC50 (nM): 29
--
STRUCTURE AS SMILES: c1cc(Nc2ccc(-c3cn[nH]c3)cc2)nc(N2CCCNCC2)n1
OPERATOR: =
IC50 (nM): 220
--
STRUCTURE AS SMILES: COc1cnc(N2C3CCC2CNC3)nc1Nc1ccc2[nH]ncc2c1
OPERATOR: =
IC50 (nM): 5
--
STRUCTURE AS SMILES: Cc1nc(N2C3CCC2CNC3)nc(Nc2ccc3[nH]ncc3c2)c1C#N
OPERATOR: =
IC50 (nM): 5.6
--
STRUCTURE AS SMILES: COc1cc2[nH]ncc2cc1Nc1nc(N2C3CNCC2C3)ncc1Cl
OPERATOR: =
IC50 (nM): 84
--
STRUCTURE AS SMILES: c1cc(Nc2ccc(-c3cncs3)cc2)nc(N2CCNCC2)n1
OPERATOR: >
IC50 (nM): 10000
--
STRUCTURE AS SMILES: Cc1nc(N2C3CNCC2C3)nc(Nc2ccc3[nH]ncc3c2)c1F
OPERATOR: =
IC50 (nM): 0.4
--
STRUCTURE AS SMILES: c1ccc2c(Nc3ccc4[nH]ncc4c3)nc(N3C4CCC3CNC4)nc2c1
OPERATOR: =
IC50 (nM): 11

---

Molecular target: Recombinant ROCK2 (amino acids 1-552) (Homo sapiens (Human), UniProt O75116)
Assay: Z′-Lyte kinase assay, ROCK2
Format: biochemical
Conditions: 9 points 2-fold serial dilution
pIC50: −log10 of the molar value.

COMPOUND: Fc1cnc(N2CC3CC(C2)N3)nc1Nc1ccc2[nH]ncc2c1
OPERATOR: =
pIC50: 7.05
//
COMPOUND: Cc1cc(Nc2ccc(-c3ccncc3)cc2)nc(N2CCNC(C)CC2)n1 (stereo not drawn)
OPERATOR: <
pIC50: 6.00
//
COMPOUND: c1cc2[nH]ncc2cc1Nc1nc(N2CCCNCC2)nc2c1COC2
OPERATOR: =
pIC50: 7.51
//
COMPOUND: CCC1CNCCN1c1nccc(Nc2ccc3[nH]ncc3c2)n1 (stereo not drawn)
OPERATOR: =
pIC50: 7.27
//
COMPOUND: CCC1CCN(c2nccc(Nc3ccc4[nH]ncc4c3)n2)CCN1 (stereo not drawn)
OPERATOR: =
pIC50: 6.35
//
COMPOUND: CC1CNCCN(c2ncc(Cl)c(Nc3ccc4[nH]ncc4c3)n2)C1 (stereo not drawn)
OPERATOR: =
pIC50: 6.55
//
COMPOUND: Cc1cc(Nc2ccc(-c3ccncc3)cc2)nc(N2CCCNC(C)C2)n1 (stereo not drawn)
OPERATOR: =
pIC50: 6.39
//
COMPOUND: CC(C)C1CN(c2nccc(Nc3ccc(-c4ccncc4)cc3)n2)CCCN1 (stereo not drawn)
OPERATOR: =
pIC50: 6.80
//
COMPOUND: Fc1cnc(N2CCCNCC2)nc1Nc1ccc2[nH]ncc2c1
OPERATOR: =
pIC50: 7.43
//
COMPOUND: c1ccc(C2CN(c3nccc(Nc4ccc5[nH]ncc5c4)n3)CCCN2)cc1 (stereo not drawn)
OPERATOR: =
pIC50: 6.62
//
COMPOUND: Fc1cnc(N2CC3CCC(C2)N3)nc1Nc1ccc2[nH]ncc2c1
OPERATOR: =
pIC50: 7.55
//
COMPOUND: Cc1cc(Nc2ccc3[nH]ncc3c2)nc(N2CCCNCC2)n1
OPERATOR: =
pIC50: 7.27
//
COMPOUND: CC1CCN(c2nccc(Nc3ccc(-c4ccncc4)cc3)n2)CCN1 (stereo not drawn)
OPERATOR: =
pIC50: 6.19
//
COMPOUND: c1cc(Nc2ccc3[nH]ncc3c2)nc(N2C3CCC2CNC3)n1
OPERATOR: =
pIC50: 8.52
//
COMPOUND: c1ccc(C2CCN(c3nccc(Nc4ccc(-c5ccncc5)cc4)n3)CCN2)cc1 (stereo not drawn)
OPERATOR: <
pIC50: 6.00

---

Target: Recombinant ROCK1 (amino acids 1-535) (Homo sapiens (Human))
Test: Z′-Lyte kinase assay, ROCK1
Assay type: biochemical
Details: 3 μM compound; read-out: ROCK1 % inh. @ [conc]
QUANTITY MEASURED: inhibition at 3 µM (%)

COMPOUND: c1cc(Nc2ccc3[nH]ncc3c2)nc(N2CC3CNCC3C2)n1 (stereo not drawn)
EXPERIMENTAL VALUE: 41.9

COMPOUND: CCC1CN(c2nccc(Nc3ccc4[nH]ncc4c3)n2)CCCN1 (stereo not drawn)
EXPERIMENTAL VALUE: 100

COMPOUND: CC1CCN(c2nc(Nc3ccc(-c4ccncc4)cc3)c3ccccc3n2)CCN1 (stereo not drawn)
EXPERIMENTAL VALUE: 100

COMPOUND: CCC1CCN(c2nccc(Nc3ccc4[nH]ncc4c3)n2)CCN1 (stereo not drawn)
EXPERIMENTAL VALUE: 100

COMPOUND: c1cc(Nc2ccc3[nH]ncc3c2)nc(N2CCC3(CCNCC3)C2)n1
EXPERIMENTAL VALUE: 88.4

COMPOUND: CC1CN(c2nccc(Nc3ccc4[nH]ncc4c3)n2)CCCN1 (stereo not drawn)
EXPERIMENTAL VALUE: 89.1

---

Molecular target: Recombinant ROCK2 (amino acids 1-552) (Homo sapiens (Human), UniProt O75116)
Test: Z′-Lyte kinase assay, ROCK2
Assay type: biochemical
Settings: 0.5 μM compound; read-out: ROCK2 % inh. @ [conc]
inhibition at 0.5 µM values, listed per item

MOLECULE: c1cc(-c2cn[nH]c2)ccc1Nc1nc(N2C3CCC2CNC3)nc2c1COCC2
UNIT DESCRIPTOR: %
inhibition at 0.5 µM: 80

MOLECULE: Cc1c(Nc2nc(N3C4CCC3CNC4)ncc2Cl)ccc2[nH]ncc12
UNIT DESCRIPTOR: %
inhibition at 0.5 µM: 0

MOLECULE: CCOOCC12CNCC1(C(F)(F)F)CN(c1ncc(F)c(Nc3ccc4[nH]ncc4c3)n1)C2 (stereo not shown)
UNIT DESCRIPTOR: %
inhibition at 0.5 µM: 7

MOLECULE: c1cc2[nH]ncc2cc1Nc1nc(N2C3CCC2CNC3)nc2c1COCC2
UNIT DESCRIPTOR: %
inhibition at 0.5 µM: 98

MOLECULE: CCOC(=O)C1NC2CC1CN(c1ncc(F)c(Nc3ccc4[nH]ncc4c3)n1)C2 (stereo not shown)
UNIT DESCRIPTOR: %
inhibition at 0.5 µM: 75

MOLECULE: CCOC(=O)[C@]12CCNCCC1CN(c1ncc(Cl)c(Nc3ccc4[nH]ncc4c3)n1)C2 (stereo partly shown)
UNIT DESCRIPTOR: %
inhibition at 0.5 µM: 29

MOLECULE: c1cc2nc(N3C4CCC3CNC4)nc(Nc3ccc4[nH]ncc4c3)c2s1
UNIT DESCRIPTOR: %
inhibition at 0.5 µM: 99

MOLECULE: c1cc(-c2cn[nH]c2)ccc1Nc1nc(N2C3CNCC2C3)nc2c1COCC2
UNIT DESCRIPTOR: %
inhibition at 0.5 µM: 75

MOLECULE: c1cc2nc(N3CCCNCC3)nc(Nc3ccc4[nH]ncc4c3)c2s1
UNIT DESCRIPTOR: %
inhibition at 0.5 µM: 98

MOLECULE: c1cc(-c2cn[nH]c2)ccc1Nc1nc(N2C3CCC2CNC3)nc2c1CNC2
UNIT DESCRIPTOR: %
inhibition at 0.5 µM: 91

MOLECULE: CN(C)c1cc(Nc2ccc3[nH]ncc3c2)nc(N2C3CCC2CNC3)n1
UNIT DESCRIPTOR: %
inhibition at 0.5 µM: 103

MOLECULE: Cc1c(Nc2nc(N3C4CNCC3C4)ncc2Cl)ccc2[nH]ncc12
UNIT DESCRIPTOR: %
inhibition at 0.5 µM: 1

MOLECULE: Cc1nc(N2C3CCC2CNC3)nc(Nc2ccc3[nH]ncc3c2)c1F
UNIT DESCRIPTOR: %
inhibition at 0.5 µM: 98

MOLECULE: Fc1cnc(N2CC3CNCC(C2)O3)nc1Nc1ccc2[nH]ncc2c1
UNIT DESCRIPTOR: %
inhibition at 0.5 µM: 71

MOLECULE: c1cc(-c2ccc(Nc3nc(N4C5CCC4CNC5)nc4c3COC4)cc2)ccn1
UNIT DESCRIPTOR: %
inhibition at 0.5 µM: 10

MOLECULE: COc1nc(N2C3CCC2CNC3)nc(Nc2ccc3[nH]ncc3c2)c1Cl
UNIT DESCRIPTOR: %
inhibition at 0.5 µM: 100

MOLECULE: Fc1cc2[nH]ncc2cc1Nc1nc(N2C3CCC2CNC3)ncc1Cl
UNIT DESCRIPTOR: %
inhibition at 0.5 µM: 90

MOLECULE: COc1cc2[nH]ncc2cc1Nc1nc(N2C3CCC2CNC3)ncc1Cl
UNIT DESCRIPTOR: %
inhibition at 0.5 µM: 83

MOLECULE: CC(=O)N1Cc2nc(N3C4CCC3CNC4)nc(Nc3ccc4[nH]ncc4c3)c2C1
UNIT DESCRIPTOR: %
inhibition at 0.5 µM: 94

MOLECULE: c1cc(-c2ccc(Nc3nc(N4C5CNCC4C5)nc4c3CNC4)cc2)ccn1
UNIT DESCRIPTOR: %
inhibition at 0.5 µM: 10

MOLECULE: CCOC(=O)[C@]12CCNCCC1CN(c1ncc(F)c(Nc3ccc4[nH]ncc4c3)n1)C2 (stereo partly shown)
UNIT DESCRIPTOR: %
inhibition at 0.5 µM: 29

MOLECULE: c1cc(-c2cn[nH]c2)ccc1Nc1nc(N2C3CNCC2C3)nc2c1CNC2
UNIT DESCRIPTOR: %
inhibition at 0.5 µM: 68

MOLECULE: c1cc2[nH]ncc2cc1Nc1nc(N2CCCNCC2)nc2c1COC2
UNIT DESCRIPTOR: %
inhibition at 0.5 µM: 93

MOLECULE: Cc1cnc(N2CCNCC(C)C2)nc1Nc1ccc2[nH]ncc2c1 (stereo not shown)
UNIT DESCRIPTOR: %
inhibition at 0.5 µM: 39

MOLECULE: COc1cc2[nH]ncc2cc1Nc1nc(N2C3CNCC2C3)ncc1Cl
UNIT DESCRIPTOR: %
inhibition at 0.5 µM: 87

MOLECULE: c1cc(-c2cn[nH]c2)ccc1Nc1nc(N2C3CNCC2C3)nc2c1COC2
UNIT DESCRIPTOR: %
inhibition at 0.5 µM: 85

MOLECULE: Cc1nc(N2C3CNCC2C3)nc(Nc2ccc3[nH]ncc3c2)c1F
UNIT DESCRIPTOR: %
inhibition at 0.5 µM: 100

MOLECULE: c1cc2c(Nc3ccc4[nH]ncc4c3)nc(N3C4CCC3CNC4)nc2s1
UNIT DESCRIPTOR: %
inhibition at 0.5 µM: 99

MOLECULE: COc1nc(N2C3CCC2CNC3)nc(Nc2ccc3[nH]ncc3c2)c1F
UNIT DESCRIPTOR: %
inhibition at 0.5 µM: 100

MOLECULE: CC1CN(c2ncc(Cl)c(Nc3ccc4[nH]ncc4c3)n2)CC(C)N1 (stereo not shown)
UNIT DESCRIPTOR: %
inhibition at 0.5 µM: 14

MOLECULE: CN1CCc2c(nc(N3C4CNCC3C4)nc2Nc2ccc3[nH]ncc3c2)C1
UNIT DESCRIPTOR: %
inhibition at 0.5 µM: 99

Values were extracted from patent US11613531B2.
